Entries annotated with measured Fold change (Compared to isotype)
# Study Target: human LILRB4 (human, UniProt Q8NHJ6 22-448)
# Experiment Notes: cell-based or functional assay
Use fold as the unit, but write only the number.

Some binders with known Fold change (Compared to isotype) results, for comparison:
Binder	Value Type	Reported Value
ch10-H9-E3-G3 (antibody, V domains shown) VH: EVQRVESGGGLVQPGGSRKLSCAASGFTFSSFGMHWVRQAPEKGLEWVAYISSGSSAMYYADTVKGRFTISRDNPKNTLFLQMTSLRSEDTAMYYCARSDGKGAMDYWGQGTSVTVSS VL: DIQMTQTTSSLSASLGDRVTISCRASQDISNYLNWYQQKPDGTVKLLVYYTSRLHSGVPSRFSGSGSGTDYSLTISNLEQEDIATYFCQQGNTLPWTFGGGTKLEIK	Fold change (Compared to isotype)	12.3
ch44-F10-B6-D4 (antibody, V domains shown) VH: EVHLVESGGGLVKPGGSLKLSCAASGFTFSSYAMSWVRQTPEKRLEWVATISSGGSYIYYPDSVKGRFTISRDNAKNTLYLQMSSLRSEDTAMYYCARQDWDGGDYYAMDYWGQGTSVTVSS VL: DIVMTQSPSSLAVSAGEKVTMSCKSSQSVLYSSNQKNFLAWYQQKPGQSPKLLIYWASTRESGVPDRFTGSGSGTDFTLTISSVQAEDLAVYYCHQYLSSLTFGAGTKLELK	Fold change (Compared to isotype)	3.97

Continue with the next binder.
Input: Return the recorded Fold change (Compared to isotype) value; entry: ch7-B4-C1-C9 (antibody, V domains shown) VH: EVQLQQSGTELVKPGASVKLSCKASGYTFTNYWMHWVKQRPGQGLEWIGEINPSNGRTNYNEKFKTKATLTVDKSSSTAYMQLSSLTSEDSAVYYCARSTYYGYDWYFDVWGAGTTVTVSS VL: DIVLTQSPSSMYASLGERVTITCKASQDINSYLSWFQQKPGKSPKTLIYRANRLLDGVPSRFSGGGSGQDYSLTISSLEHEDMGIYYCLQCDEFPHTFGGGTKLEIK
Output: 13.1
